These measurements were taken from patent US20120016009A1.

Test system: PCSK9 mRNA
assay.summary: PCSK9 siRNA screening in HepG2 cells (lipofectamine 2000 transfection, PCSK9 mRNA by Quantigene, normalized to GAP-DH)
Assay type: cell-based, human
assay.context: 30 nM siRNA
In the oligonucleotide strings, read from the 5' end, every base follows the letter of its sugar. An asterisk marks phosphorothioate; unmarked linkages are phosphodiester. Other units and linkages are bracketed, terminal groups are in braces. A string of capitals states the bases alone. d = 2'-deoxy (DNA); m = 2'-O-methyl; r = 2'-OH (RNA)
Reported Mean percent remaining mRNA transcript at siRNA concentration/in cell type 30 nM/HepG2 is given for each of the following substances.
reported.metric: Mean percent remaining mRNA transcript at siRNA concentration/in cell type 30 nM/HepG2 (%)

substance | numeric.value
AD-9764: PCSK9 siRNA (sense mCmUrGrGrArGmUmUmUrAmUmUmCrGrGrArArArAdT*dT; antisense rUrUrUrUrCrCrGrArAmUrArArArCrUrCmCrArGdT*dT) | 112
AD-9562: PCSK9 siRNA (sense rUrCrUrCrCrUrArGrArCrArCrCrArGrCrArUrAdT*dT; antisense rUrArUrGrCrUrGrGrUrGrUrCrUrArGrGrArGrAdT*dT) | 46
AD-9616: PCSK9 siRNA (sense rArGrCrArCrCrUrGrCrUrUrUrGrUrGrUrCrArCdT*dT; antisense rGrUrGrArCrArCrArArArGrCrArGrGrUrGrCrUdT*dT) | 84
AD-9611: PCSK9 siRNA (sense rUrCrCrUrArGrArCrArCrCrArGrCrArUrArCrAdT*dT; antisense rUrGrUrArUrGrCrUrGrGrUrGrUrCrUrArGrGrAdT*dT) | 48
AD-9600: PCSK9 siRNA (sense rGrUrCrGrUrGrCrUrGrGrUrCrArCrCrGrCrUrGdT*dT; antisense rCrArGrCrGrGrUrGrArCrCrArGrCrArCrGrArCdT*dT) | 112
AD-9645: PCSK9 siRNA (sense mCmCmCrArGmCmCrArGrGrAmUmUmCmCrGmCrGmCdT*dT; antisense rGrCrGrCrGrGrArArUrCrCrUrGrGrCrUrGrGrGdT*dT) | 66
AD-9696: PCSK9 siRNA (sense mCmUrGmCmCrGrGrGmCmCmCrAmCrArAmCrGmCmUdT*dT; antisense rArGrCrGrUrUrGrUrGrGrGrCrCrCrGrGmCrArGdT*dT) | 77
AD-9543: PCSK9 siRNA (sense rCrGrCrGrUrGrCrUrCrArArCrUrGrCrCrArArGdT*dT; antisense rCrUrUrGrGrCrArGrUrUrGrArGrCrArCrGrCrGdT*dT) | 51
AD-9538: PCSK9 siRNA (sense rCrCrGrGrGrCrGrGrArUrGrArArUrArCrCrArGdT*dT; antisense rCrUrGrGrUrArUrUrCrArUrCrCrGrCrCrCrGrGdT*dT) | 80
AD-9578: PCSK9 siRNA (sense rCrArUrUrUrArUrCrUrUrUrUrGrGrGrUrCrUrGdT*dT; antisense rCrArGrArCrCrCrArArArArGrArUrArArArUrGdT*dT) | 61
AD-9713: PCSK9 siRNA (sense rAmCrAmUmUmUrAmUmCmUmUmUmUrGrGrGmUmCmUdT*dT; antisense rArGrArCrCmCrArArArArGrAmUrArArArUrGrUdT*dT) | 22
AD-9723: PCSK9 siRNA (sense rArGmCmCrArArGmCmCmUmCmUmUmCmUmUrAmCmUdT*dT; antisense rArGmUrArArGrArArGrArGrGrCrUrUrGrGrCrUdT*dT) | 12
AD-9695: PCSK9 siRNA (sense rArGmCmUmCmCmUrGmCrAmCrArGmUmCmCmUmCmCdT*dT; antisense rGrGrArGrGrArCrUrGrUrGmCrArGrGrArGrCrUdT*dT) | 102
AD-9571: PCSK9 siRNA (sense rGrCrCrArGrGrUrGrCrUrGrCrCrUrGrCrUrArCdT*dT; antisense rGrUrArGrCrArGrGrCrArGrCrArCrCrUrGrGrCdT*dT) | 27
AD-9566: PCSK9 siRNA (sense rUrGrCrCrGrGrGrCrCrCrArCrArArCrGrCrUrUdT*dT; antisense rArArGrCrGrUrUrGrUrGrGrGrCrCrCrGrGrCrAdT*dT) | 38
AD-9747: PCSK9 siRNA (sense mUmCmUrGrGrAmUrGrGmCrAmUmCmUrArGmCmCrAdT*dT; antisense rUrGrGrCmUrArGrArUrGrCmCrArUrCmCrArGrAdT*dT) | 63
AD-9599: PCSK9 siRNA (sense rUrUrCrUrGrGrArUrGrGrCrArUrCrUrArGrCrCdT*dT; antisense rGrGrCrUrArGrArUrGrCrCrArUrCrCrArGrArAdT*dT) | 139
AD-9735: PCSK9 siRNA (sense mCrAmCrGrGmUrAmCmCrGrGrGmCrGrGrAmUrGrAdT*dT; antisense rUmCrArUrCrCrGrCrCrCrGrGmUrArCrCrGrUrGdT*dT) | 115
AD-9615: PCSK9 siRNA (sense rUrUrCrCrGrGrGrArCrGrArUrGrCrCrUrGrCrCdT*dT; antisense rGrGrCrArGrGrCrArUrCrGrUrCrCrCrGrGrArAdT*dT) | 116
AD-9745: PCSK9 siRNA (sense mUmCrArGrGrArGmCmCrGrGrGrAmCrGmUmCrArGdT*dT; antisense rCrUrGrArCrGrUrCrCrCrGrGrCrUrCrCrUrGrAdT*dT) | 56
